assay summary: Confirmation Concentration-Response Assay for lipid storage modulators: for probe SAR round 2
recorded conditions: Drosophila S3 cells, BODIPY lipid droplet fluorescence, 18-24 h; series mostly up to 46.1 µM
Results filed as inconclusive are left out. Calls of active or inactive are those of the source. The call rests on the fitted dose curve; in most records, active means well fitted inhibition curve with a large enough effect; inconclusive means small, poorly fitted or top-dose-only effect, or another doubt; inactive means flat fitted curve, though single readings scatter.
// one of True for active, False for inactive, no free text

Given `CCOC(=O)C1CCN(C(=O)C(C)(C)NC(=O)Nc2ccc(CN3CCOCC3)cc2)CC1` , state the outcome it received in this test.
False

Next up: `CCOC(=O)C1CCN(C(=O)C(C)(C)NC(=O)Nc2ccc(N(C)C)cc2)CC1`
True

Next up: `CCOC(=O)C1CCN(C(=O)C(C)(C)NC(=O)Nc2ccc3sccc3c2)CC1`
True

Next up: O=C(NC1CCCc2c1cnn2CCO)c1ccccn1 (stereo not given)
True

Next up: COc1cccc(-n2ncc3c2CCCC3NC(=O)c2ccccn2)c1 (stereo not given)
True

Next up: `CC(C)(NC(=O)Nc1ccccc1Cl)C(=O)N1CCC(C(=O)O)CC1`
False

Next up: `CCOC(=O)C1CCN(C(=O)C(C)(C)NC(=O)Nc2cccc(C(=O)OC)c2)CC1`
True

Next up: `CCOC(=O)C1CCN(C(=O)C(C)(C)NC(=O)Nc2ccc(Oc3ccccc3)cc2)CC1`
True

Next up: `CCOC(=O)C1CCN(C(=O)C(C)(C)NC(=O)Nc2cccc(OC)c2)CC1`
True

Next up: `CCOC(=O)C1CCN(C(=O)C(C)(C)NC(=O)Nc2ccc3c(c2)CCC3)CC1`
True
